test: Phase 1 single ascending dose plasma pharmacokinetics in healthy volunteers; assay type: in vivo, human; conditions: human, po, 200 mg, Group 1, 200 mg single oral dose, Mean (N 6), read-out: AUC(0-24)
measuredEndpoint: AUC(0-t) (ng·h/mL)

| querySmiles | measureUnit | valueMeasured |
| --- | --- | --- |
| CC(=O)c1nn(CC(=O)N2C[C@H](F)C[C@H]2C(=O)Nc2cccc(Br)n2)c2ccc(-c3cnc(C)nc3)cc12 | ng·h/mL | 2930 |

###

assay: Phase 1 single ascending dose plasma pharmacokinetics in healthy volunteers; format: in vivo, human; settings: human, po, 600 mg, Group 2, 600 mg single oral dose, read-out: Mean Cmax

| querySmiles | Cmax |
| --- | --- |
| CC(=O)c1nn(CC(=O)N2C[C@H](F)C[C@H]2C(=O)Nc2cccc(Br)n2)c2ccc(-c3cnc(C)nc3)cc12 | 2020 ng/mL |

###

experiment: Ocular tissue and plasma pharmacokinetics, 50 mg/kg BID oral, Dutch Belted rabbits (Example 4/5); assay type: in vivo; conditions: male, Dutch Belted, rabbit, choroid-RPE, po, 50 mg/kg, DB rabbit, 50 mg/kg BID oral, Day 15, 240 h; read-out: Mean Choroid-RPE concentration
measuredEndpoint: concentration at 240 h (ng/g)

| querySmiles | valueMeasured |
| --- | --- |
| CC(=O)c1nn(CC(=O)N2C[C@H](F)C[C@H]2C(=O)Nc2cccc(Br)n2)c2ccc(-c3cnc(C)nc3)cc12 | 194 |

###

assay: Ocular tissue and plasma pharmacokinetics, 15 mg/kg single and BID oral, Dutch Belted rabbits (Example 3/5); type: in vivo; conditions: Dutch Belted, rabbit, iris-ciliary body, po, 15 mg/kg, DB rabbit, 15 mg/kg single oral dose, Day 1, 96 h; read-out: Mean Iris-Ciliary Body concentration
measuredEndpoint: concentration at 96 h (ng/g)

| querySmiles | valueMeasured |
| --- | --- |
| CC(=O)c1nn(CC(=O)N2C[C@H](F)C[C@H]2C(=O)Nc2cccc(Br)n2)c2ccc(-c3cnc(C)nc3)cc12 | 57.9 |

###

experiment: Ocular tissue and plasma pharmacokinetics, 50 mg/kg BID oral, Dutch Belted rabbits (Example 4/5); assay type: in vivo; details: male, Dutch Belted, po; Optic Nerve, DB rabbit, 50 mg/kg BID, Day 15
measuredEndpoint: MRT last (h)

| compound | measuredEndpoint | measureUnit | valueMeasured |
| --- | --- | --- | --- |
| CC(=O)c1nn(CC(=O)N2C[C@H](F)C[C@H]2C(=O)Nc2cccc(Br)n2)c2ccc(-c3cnc(C)nc3)cc12 [Compound 1] | MRT last | h | 4.79 |

###

test: Ocular tissue distribution and pharmacokinetics, 7.5 and 15 mg/kg oral, pigmented Dutch Belted rabbits (Example 7); format: in vivo; details: Dutch Belted, rabbit, choroid-RPE, oral, 15 mg/kg, DB rabbits, Day 15, 15 mg/kg BID, 24 hr; read-out: Mean Choroid-RPE Concentration

| compound | measureUnit | concentration at 24 h |
| --- | --- | --- |
| CC(=O)c1nn(CC(=O)N2C[C@H](F)C[C@H]2C(=O)Nc2cccc(Br)n2)c2ccc(-c3cnc(C)nc3)cc12 [Compound 1] | ng/g | 1470 |

###

experiment: Ocular tissue and plasma pharmacokinetics, 15 mg/kg oral, New Zealand White rabbits (Example 3/5); assay type: in vivo; settings: New Zealand White, aqueous humor; NZW rabbit, 15 mg/kg single oral dose, Day 1, 1 h; read-out: Mean Aqueous Humor concentration

| compound | concentration at 1 h [ng/mL] |
| --- | --- |
| CC(=O)c1nn(CC(=O)N2C[C@H](F)C[C@H]2C(=O)Nc2cccc(Br)n2)c2ccc(-c3cnc(C)nc3)cc12 [Compound 1] | 4 |
